- targetEntity: T1, IL10Rα/IL2Rγ receptor (human) (UniProt Q13651)
- T1 sequence (looked up) 1: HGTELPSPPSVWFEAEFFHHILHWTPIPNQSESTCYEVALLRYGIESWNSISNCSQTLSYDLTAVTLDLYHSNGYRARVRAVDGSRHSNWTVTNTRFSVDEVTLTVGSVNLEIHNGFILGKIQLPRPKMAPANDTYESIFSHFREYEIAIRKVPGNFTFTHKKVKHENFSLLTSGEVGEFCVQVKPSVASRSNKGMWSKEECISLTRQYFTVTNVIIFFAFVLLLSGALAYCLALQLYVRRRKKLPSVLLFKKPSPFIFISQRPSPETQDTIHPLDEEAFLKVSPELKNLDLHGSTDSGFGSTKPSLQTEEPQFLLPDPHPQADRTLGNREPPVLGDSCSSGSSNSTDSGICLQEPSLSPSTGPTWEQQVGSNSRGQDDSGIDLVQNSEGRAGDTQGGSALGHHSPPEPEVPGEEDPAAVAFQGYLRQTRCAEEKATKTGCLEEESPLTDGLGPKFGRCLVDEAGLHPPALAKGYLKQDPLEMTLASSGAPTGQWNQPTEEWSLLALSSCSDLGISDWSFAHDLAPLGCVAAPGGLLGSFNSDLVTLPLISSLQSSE
- T1 sequence (looked up) 2: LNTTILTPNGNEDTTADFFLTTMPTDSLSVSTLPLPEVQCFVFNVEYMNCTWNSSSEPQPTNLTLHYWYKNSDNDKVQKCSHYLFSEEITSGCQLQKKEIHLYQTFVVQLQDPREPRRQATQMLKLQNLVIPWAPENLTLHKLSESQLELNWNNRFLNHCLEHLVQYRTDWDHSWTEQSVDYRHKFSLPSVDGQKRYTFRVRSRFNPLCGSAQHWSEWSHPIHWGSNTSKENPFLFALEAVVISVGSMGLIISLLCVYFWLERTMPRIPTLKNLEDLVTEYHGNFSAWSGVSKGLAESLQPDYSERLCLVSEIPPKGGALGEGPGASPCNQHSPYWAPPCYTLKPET
- test: cell-based or functional assay
assayMetric: IL-9 secretion, CD8 T cells, at 0.0001 µM (pg/mL)
Could you give me the number in pg/mL? Just the number is fine.

Query: So what's the measured IL-9 secretion, CD8 T cells, at 0.0001 µM for this one? hIL10Ra_VHH14 - hIL2Rg_VHH19, linker GS, tag his (bispecific antibody, not shown: small tags and cut ends) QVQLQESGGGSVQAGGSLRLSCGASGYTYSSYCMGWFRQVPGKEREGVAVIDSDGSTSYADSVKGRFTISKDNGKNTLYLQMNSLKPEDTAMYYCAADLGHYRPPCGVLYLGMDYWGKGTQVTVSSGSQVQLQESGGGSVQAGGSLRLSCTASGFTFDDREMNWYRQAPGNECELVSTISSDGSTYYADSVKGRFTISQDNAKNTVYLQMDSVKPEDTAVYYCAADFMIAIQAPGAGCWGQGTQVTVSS
Response: 918
